Listed below are compounds with pIC50 for Vascular endothelial growth factor receptor 1 (Homo sapiens), each taken from published literature.
pIC50: −log10 of the molar value.

Illustrative cases are given below, each with its answer.
>  <COMPOUND>
CCCC(=O)Nc1ccc(F)c(C(=O)c2c[nH]c3ncc(-c4cccc(C(N)=O)c4)cc23)c1F

>  <pIC50>
≥ 5.00

$$$$
>  <COMPOUND>
Cc1nc(COc2ccc(F)c(C(=O)c3c[nH]c4ncc(Cl)cc34)c2F)c(C)o1

>  <pIC50>
≥ 5.00

$$$$
>  <COMPOUND>
COC(=O)CCCCS(=O)(CCCCC(=O)OC)=NC(=O)c1cnc(N)c(C#Cc2cccc(NC(=O)c3cc(C)ccc3F)c2)c1

>  <pIC50>
7.89

$$$$

Query string: Notebook: pull reported pIC50 for Vascular endothelial growth factor receptor 1 (Homo sapiens), entry COc1cc(Nc2ncnc(-n3c(NC4c5ccccc5CC4O)nc4ccccc43)n2)cc(OC)c1OC (stereo not shown)
Result string: 5.34 to 6.12

Query string: Notebook: pull reported pIC50 for Vascular endothelial growth factor receptor 1 (Homo sapiens), entry COc1cc(Nc2ncnc(-n3c(NCCc4ccccn4)nc4ccccc43)n2)cc(OC)c1OC
Result string: 5.32 to 6.10

Query string: Notebook: pull reported pIC50 for Vascular endothelial growth factor receptor 1 (Homo sapiens), entry CCN1CCC(Nc2ccc3c(c2)/C(=C(\c2ccc(C)cc2)c2ncc[nH]2)C(=O)N3)CC1
Result string: 6.30 to 7.30

Query string: Notebook: pull reported pIC50 for Vascular endothelial growth factor receptor 1 (Homo sapiens), entry CS(=O)(=O)Nc1ccc(Cl)c(C(=O)c2c[nH]c3ncc(Br)cc23)c1F
Result string: ≥ 5.00

###

Listed below are compounds with pIC50 for Vascular endothelial growth factor receptor 1 (Homo sapiens, UniProt P17948), each taken from published literature.
pIC50 field: float, defined as -log10 of concentration (mol/L).

Illustrative cases are given below, each with its answer.
>  <CHEMICAL SMILES>
Cc1ccc(F)c(NC(=O)c2ccc(F)c(Oc3ccnc(-c4cc(C(=O)NCCCN)c[nH]4)c3)c2)c1

>  <pIC50>
7.60

$$$$
>  <CHEMICAL SMILES>
C=CC(=O)N(C)c1cc(Nc2ncc(Cl)c(NCCCNC(=O)c3ccc(F)cc3)n2)ccc1F

>  <pIC50>
5.91

$$$$
>  <CHEMICAL SMILES>
CCCCCCCCCCCCCCCCCCOc1ccc(CCC(=O)Nc2ccc(Oc3cccc(C(=O)O)c3)c(C(=O)O)c2)cc1

>  <pIC50>
6.15

$$$$

// moving on: another record for pIC50
Query string: Notebook: pull reported pIC50 for Vascular endothelial growth factor receptor 1 (Homo sapiens, UniProt P17948), entry Cc1ccc(F)c(NC(=O)Nc2ccc(Oc3ccnc(-c4cc(C(=O)N5CCN(C(=O)OC(C)(C)C)CC5)c[nH]4)c3)cc2F)c1
Result string: 7.68

###

pIC50: −log10 of the molar value.
Listed below are compounds with pIC50 for Vascular endothelial growth factor receptor 1 (Homo sapiens), each taken from published literature.

Illustrative cases are given below, each with its answer.
>  <COMPOUND>
CC(NC(=O)c1ccc(C2CC2)c(-c2ccc3nc(Nc4cnn(C5CC5)c4)ncc3c2)c1)c1cccc(C(F)(F)F)c1 (centres unmarked)

>  <ASSAY VALUE>
< 6.00

$$$$
>  <COMPOUND>
COc1ccc(N(C)c2ncnc(Nc3cc(OC)c(OC)c(OC)c3)n2)cc1

>  <ASSAY VALUE>
> 6.00

$$$$
>  <COMPOUND>
COC(=O)Nc1ccc(F)c(C(=O)c2c[nH]c3ncc(-c4cccnc4)cc23)c1F

>  <ASSAY VALUE>
≥ 5.00

$$$$
>  <COMPOUND>
NC(=O)c1cccc(-c2cnc3[nH]cc(C(=O)c4cc(O)ccc4F)c3c2)c1

>  <ASSAY VALUE>
≥ 5.00

$$$$
>  <COMPOUND>
CS(=O)(=O)Nc1ccc(F)c(Cc2c[nH]c3ncccc23)c1F

>  <ASSAY VALUE>
≥ 5.00

$$$$
>  <COMPOUND>
COC(=O)c1cccc(Nc2ncnc(Nc3cc(-c4ccco4)n[nH]3)n2)c1

>  <ASSAY VALUE>
5.03 to 5.20

$$$$
>  <COMPOUND>
CCOC(=O)CN1CCN(CCCNC(=O)c2cc3nccc(Oc4ccc(NC(=O)Nc5cc(C)ccc5F)cc4)c3s2)CC1

>  <ASSAY VALUE>
8.30

$$$$

// moving on: another record for pIC50
Query string: Notebook: pull reported pIC50 for Vascular endothelial growth factor receptor 1 (Homo sapiens), entry COc1cc(Nc2ncnc(Nc3ccccc3C)n2)cc(OC)c1OC
Result string: 4.91 to 5.02

###

Listed below are compounds with pIC50 for Vascular endothelial growth factor receptor 1 (Homo sapiens, UniProt P17948), each taken from published literature.
pIC50: −log10 of the molar value.

Illustrative cases are given below, each with its answer.
>  <COMPOUND>
COc1cc(OC)cc(C(=O)c2c[nH]c3ncc(Br)cc23)c1

>  <READOUT LABEL>
pIC50

>  <ASSAY VALUE>
≥ 5.00

$$$$
>  <COMPOUND>
Cc1ccc(F)c(NC(=O)Nc2ccc(Oc3ccnc4cc(C(=O)NCCCN5CCOC(CO)C5)sc34)cc2F)c1 (centres unmarked)

>  <READOUT LABEL>
pIC50

>  <ASSAY VALUE>
8.05

$$$$
>  <COMPOUND>
CCCS(=O)(=O)Nc1ccc(F)c(C(=O)c2c[nH]c3ncc(OC4CCCC4)cc23)c1F

>  <READOUT LABEL>
pIC50

>  <ASSAY VALUE>
≥ 5.00

$$$$
>  <COMPOUND>
COc1cc(Nc2ncnc(-c3ccccc3)n2)cc(OC)c1OC

>  <READOUT LABEL>
pIC50

>  <ASSAY VALUE>
4.99 to 5.15

$$$$
>  <COMPOUND>
Oc1ccc(Cc2c[nH]c3ncc(-c4ccsc4)cc23)cc1O

>  <READOUT LABEL>
pIC50

>  <ASSAY VALUE>
≥ 5.00

$$$$

Query string: Any idea what its pIC50 is? The compound is COc1cc(Nc2ncnc(Nc3ccc(Br)cc3F)n2)cc(OC)c1OC
Result string: 5.27 to 6.05

Query string: Any idea what its pIC50 is? The compound is O=C(O)/C=C/c1cccc(-c2cnc3[nH]cc(C(=O)c4cccc(OC(F)(F)F)c4)c3c2)c1
Result string: ≥ 5.00

Query string: Any idea what its pIC50 is? The compound is CNc1nc2ccccc2n1-c1ncnc(Nc2cc(OC)c(OC)c(OC)c2)n1
Result string: 5.23 to 6.01

###

Listed below are molecules with IC50 for Vascular endothelial growth factor receptor 1 (Homo sapiens, UniProt P17948), each taken from published literature.

Illustrative cases are given below, each with its answer.
>  <CHEMICAL SMILES>
Cc1cccc(NC(=O)Nc2ccc(Oc3ccnc(-c4cc(C(=O)NCCCO)c[nH]4)c3)cc2)c1

>  <IC50>
0.008 µM

$$$$
>  <CHEMICAL SMILES>
O=C(O)/C=C/c1cccc(-c2cnc3[nH]cc(C(=O)c4ccccc4F)c3c2)c1

>  <IC50>
≤ 10 µM

$$$$
>  <CHEMICAL SMILES>
O=C(NCC(F)(F)F)Nc1ccc(F)c(Cc2c[nH]c3ncc(Cl)cc23)c1F

>  <IC50>
≤ 10 µM

$$$$
>  <CHEMICAL SMILES>
COc1cc(Nc2ncnc(-n3ccc4cc(OCc5ccccc5)ccc43)n2)cc(OC)c1OC

>  <IC50>
> 9.31 µM

$$$$
>  <CHEMICAL SMILES>
Cc1ccc(F)c(NC(=O)Nc2ccc(Oc3ccnc(-c4cc(C(=O)OCCCN5CCOCC5)c[nH]4)c3)cc2F)c1

>  <IC50>
0.011 µM

$$$$

Query string: Notebook: pull reported IC50 for Vascular endothelial growth factor receptor 1 (Homo sapiens, UniProt P17948), entry O=C(c1cccc(O)c1F)c1c[nH]c2ncc(-c3ccccc3)cc12
Result string: ≤ 10 µM

Query string: Notebook: pull reported IC50 for Vascular endothelial growth factor receptor 1 (Homo sapiens, UniProt P17948), entry CCCS(=O)(=O)Nc1ccc(F)c(C(=O)c2c[nH]c3ncc(-c4ccc(C(=O)N(C)C)cc4)cc23)c1F
Result string: ≤ 10 µM

###

Listed below are molecules with IC50 for Vascular endothelial growth factor receptor 1 (Homo sapiens), each taken from published literature.

Illustrative cases are given below, each with its answer.
>  <MOLECULE>
CCc1cccc(Nc2ncnc(-n3c(N)nc4ccccc43)n2)c1

>  <IC50>
< 1.21 µM

$$$$
>  <MOLECULE>
COc1cc(Nc2ncnc(Nc3cccc4ccccc34)n2)cc(OC)c1OCCN1CCOCC1

>  <IC50>
4.78 to 6.96 µM

$$$$

Query string: Any idea what its IC50 is? The molecule is CCCS(=O)(=O)Nc1ccc(F)c(C(=O)c2c[nH]c3ncc(OCc4ccccc4)cc23)c1F
Result string: ≤ 10 µM

Query string: Any idea what its IC50 is? The molecule is Cc1ccc(F)c(NC(=O)Nc2ccc(Oc3ccnc4cc(C(=O)NCCCN5CCOC(CO)C5)sc34)cc2)c1 (centres unmarked)
Result string: 0.01 µM

Query string: Any idea what its IC50 is? The molecule is O=C(c1ccc2cc[nH]c2c1)c1c[nH]c2ncc(OC3CCCC3)cc12
Result string: ≤ 10 µM

Query string: Any idea what its IC50 is? The molecule is CN(C)CCN1CCC(Nc2ccc3c(c2)/C(=C(\c2ccccc2)c2nc4ccccc4[nH]2)C(=O)N3)CC1
Result string: 0.5 to 5 µM

Query string: Any idea what its IC50 is? The molecule is COc1cc(Nc2ncnc(-n3c(NCc4ccc(F)cc4Cl)nc4ccccc43)n2)cc(OC)c1OC
Result string: > 8.4 µM

Query string: Any idea what its IC50 is? The molecule is c1ccc(CNc2ccc(Cc3c[nH]c4ncccc34)cn2)cc1
Result string: ≤ 10 µM
